target: recombinant human NK3 receptor (Homo sapiens); construct: expressed in transfected cells; host or cells: HEK293 cells, transient expression; membrane preparation; experiment: [3H]SR142801 competition binding assay; details: [3H]SR142801, membranes of HEK293 cells transiently expressing recombinant human NK3 receptor; read-out: hNK3 Ki
Catalogue of Ki readings, one per entry.
recorded-metric: Ki

INSERT INTO measurements (molecule, measured_target, val) VALUES
  ('CN(Cc1ccc(C(F)(F)F)c(F)c1)C(=O)C(C)(CCN1CCC(NS(C)(=O)=O)CC1)c1ccc(Cl)c(Cl)c1 (stereo not drawn) [Example 9]', 'recombinant human NK3 receptor (Homo sapiens)', '30 nM'),
  ('CC(CCN1CCC(N2CCCC2=O)CC1)(C(=O)NC1(c2ccccc2)CC1)c1ccc(Cl)c(Cl)c1 (stereo not drawn) [Example 93]', 'recombinant human NK3 receptor (Homo sapiens)', '184 nM'),
  ('CC(=O)N(C1CC1)C1CCN(CCC(C)(C(=O)N[C@H](CO)c2ccc(Cl)c(Cl)c2)c2ccc(Cl)c(Cl)c2)CC1 (single isomer, unassigned; diastereoisomer 2) [Example 145]', 'recombinant human NK3 receptor (Homo sapiens)', '50.2 nM');

----------
Measured Ki, listed per entry.
molecular target: recombinant human NK3 receptor (Homo sapiens); construct: expressed in transfected cells; host or cells: HEK293 cells, transient expression; membrane preparation; experiment: [3H]SR142801 competition binding assay; conditions: representative compounds; [3H]SR142801, HEK293 membranes, human NK3 receptor; read-out: Ki NK3 h
recorded-metric: Ki (nM)

INSERT INTO assay_data (compound, measured_target, val) VALUES
  ('CCN(C1CCN(CCC(C)(C(=O)N(C)Cc2ccc(F)c(C(F)(F)F)c2)c2ccc(Cl)c(Cl)c2)CC1)S(C)(=O)=O (stereo not shown) [Example 74]', 'recombinant human NK3 receptor (Homo sapiens)', 1.3),
  ('CN(Cc1cccc(Cl)c1)C(=O)C(C)(CCN1CCC(N2CCCC2=O)CC1)c1ccc(Cl)c(Cl)c1 (stereo not shown) [Example 87]', 'recombinant human NK3 receptor (Homo sapiens)', 4.6),
  ('CN(Cc1ccc(Cl)c(Cl)c1)C(=O)C(C)(CCN1CCC(N2CCCC2=O)CC1)c1ccc(Cl)c(Cl)c1 (stereo not shown) [Example 82]', 'recombinant human NK3 receptor (Homo sapiens)', 1.2),
  ('CC(=O)N(C)C1CCN(CCC(C)(C(=O)N(C)Cc2ccc(Cl)c(Cl)c2)c2ccc(Cl)c(Cl)c2)CC1 (stereo not shown) [Example 100]', 'recombinant human NK3 receptor (Homo sapiens)', 3),
  ('CC(CCN1CCC(N2CCCC2=O)CC1)(C(=O)NCc1ccc(Cl)c(Cl)c1)c1ccc(Cl)c(Cl)c1 (stereo not shown) [Example 83]', 'recombinant human NK3 receptor (Homo sapiens)', 2.3),
  ('CN(Cc1ccc(C(F)(F)F)cc1)C(=O)C(C)(CCN1CCC(N2CCCC2=O)CC1)c1ccc(Cl)c(Cl)c1 (stereo not shown) [Example 88]', 'recombinant human NK3 receptor (Homo sapiens)', 1.8),
  ('COCCN(C(C)=O)C1CCN(CCC(C)(C(=O)N[C@@H](CO)c2ccc(F)cc2)c2ccc(Cl)c(Cl)c2)CC1 (single isomer, unassigned) [Example 150]', 'recombinant human NK3 receptor (Homo sapiens)', 1.7),
  ('CN(Cc1ccc(C(F)(F)F)c(F)c1)C(=O)C(C)(CCN1CCC(N(C2CC2)S(C)(=O)=O)CC1)c1ccc(Cl)c(Cl)c1 (stereo not shown) [Example 57]', 'recombinant human NK3 receptor (Homo sapiens)', 5.9),
  ('CCN(C(C)=O)C1CCN(CCC(C)(C(=O)N[C@@H](CO)c2ccc(F)cc2)c2ccc(Cl)c(Cl)c2)CC1 (single isomer, unassigned; epimer 1) [Example 166]', 'recombinant human NK3 receptor (Homo sapiens)', 2.2),
  ('CCN(C1CCN(CCC(C)(C(=O)N(C)Cc2cccc(Cl)c2)c2ccc(Cl)c(Cl)c2)CC1)S(C)(=O)=O (stereo not shown) [Example 75]', 'recombinant human NK3 receptor (Homo sapiens)', 3.9),
  ('CN(Cc1ccc(C(F)(F)F)c(F)c1)C(=O)C(C)(CCN1CCC(N(C)S(C)(=O)=O)CC1)c1ccc(Cl)c(Cl)c1 (stereo not shown) [Example 45]', 'recombinant human NK3 receptor (Homo sapiens)', 8.5),
  ('CN(Cc1ccc(F)c(C(F)(F)F)c1)C(=O)C(C)(CCN1CCC(N(C2CC2)S(C)(=O)=O)CC1)c1ccc(Cl)c(Cl)c1 (stereo not shown) [Example 59]', 'recombinant human NK3 receptor (Homo sapiens)', 4.3),
  ('CC(=O)N(C)C1CCN(CCC(C)(C(=O)N(C)Cc2ccc(F)c(C(F)(F)F)c2)c2ccc(Cl)c(Cl)c2)CC1 (single isomer, unassigned) [Example 122]', 'recombinant human NK3 receptor (Homo sapiens)', 1.5);

----------
target: recombinant human NK3 receptor (Homo sapiens, UniProt P29371); construct: expressed in transfected cells; host or cells: HEK293 cells, transient expression; membrane preparation; assay: [3H]SR142801 competition binding assay; settings: representative compounds; [3H]SR142801, HEK293 membranes, human NK3 receptor; read-out: Ki NK3 h
Sequence (P29371 whole entry): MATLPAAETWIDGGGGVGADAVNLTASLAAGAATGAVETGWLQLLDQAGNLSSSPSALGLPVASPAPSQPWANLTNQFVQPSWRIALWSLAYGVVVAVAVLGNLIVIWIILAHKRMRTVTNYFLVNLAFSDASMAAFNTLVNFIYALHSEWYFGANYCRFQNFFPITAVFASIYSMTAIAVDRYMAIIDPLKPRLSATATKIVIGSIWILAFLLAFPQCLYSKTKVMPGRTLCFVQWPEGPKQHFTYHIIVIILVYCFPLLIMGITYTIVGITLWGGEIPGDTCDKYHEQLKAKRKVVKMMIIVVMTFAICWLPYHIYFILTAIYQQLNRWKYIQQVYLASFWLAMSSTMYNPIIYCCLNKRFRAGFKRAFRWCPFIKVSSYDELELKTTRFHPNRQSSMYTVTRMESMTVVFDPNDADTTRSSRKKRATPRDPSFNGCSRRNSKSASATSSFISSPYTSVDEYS
In this section we review reported Ki values for a set of compounds.
recorded-metric: Ki (nM)

INSERT INTO measurements (compound, recorded_metric, val) VALUES
  ('CC(=O)N(C)C1CCN(CCC(C)(C(=O)N[C@@H](CO)c2ccc(Cl)cc2)c2ccc(Cl)c(Cl)c2)CC1 (some centres unmarked) [Example 136]', 'Ki', 9.6),
  ('CC[C@H](NC(=O)C(C)(CCN1CCC(N(CC)C(C)=O)CC1)c1ccc(Cl)c(Cl)c1)c1ccccc1 (some centres unmarked) [Example 168]', 'Ki', 3),
  ('CN(Cc1ccc(C(F)(F)F)c(F)c1)C(=O)C(C)(CCN1CCC(N2CCCC2=O)CC1)c1ccc(Cl)c(Cl)c1 (centres unmarked) [Example 81]', 'Ki', 3),
  ('CC(CCN1CCC(N2CCCC2=O)CC1)(C(=O)NC(c1ccc(F)cc1)C(F)(F)F)c1ccc(Cl)c(Cl)c1 (centres unmarked) [Example 96]', 'Ki', 7.2),
  ('CC(=O)N(C)C1CCN(CCC(C)(C(=O)N(C)Cc2ccc(Cl)c(C(F)(F)F)c2)c2ccc(Cl)c(Cl)c2)CC1 (centres unmarked) [Example 103]', 'Ki', 2.2),
  ('CN(Cc1ccc(Cl)c(Cl)c1)C(=O)C(C)(CCN1CCC(N(C)S(C)(=O)=O)CC1)c1ccc(Cl)c(Cl)c1 (centres unmarked) [Example 48]', 'Ki', 3.6),
  ('CCN(C1CCN(CCC(C)(C(=O)N(C)Cc2ccc(C(F)(F)F)c(F)c2)c2ccc(Cl)c(Cl)c2)CC1)S(C)(=O)=O (centres unmarked) [Example 69]', 'Ki', 2.4),
  ('CC(=O)N(C)C1CCN(CCC(C)(C(=O)N(C)Cc2ccc(F)c(C(F)(F)F)c2)c2ccc(Cl)c(Cl)c2)CC1 (centres unmarked) [Example 104]', 'Ki', 2.3),
  ('CN(Cc1ccc(Cl)c(C(F)(F)F)c1)C(=O)C(C)(CCN1CCC(N2CCCC2=O)CC1)c1ccc(Cl)c(Cl)c1 (centres unmarked) [Example 85]', 'Ki', 1.4),
  ('CCN(C1CCN(CCC(C)(C(=O)N(C)Cc2ccc(C)cc2)c2ccc(Cl)c(Cl)c2)CC1)S(C)(=O)=O (centres unmarked) [Example 77]', 'Ki', 3.1),
  ('CC(=O)N(C)C1CCN(CCC(C)(C(=O)N(C)Cc2ccc(Cl)cc2)c2ccc(Cl)c(Cl)c2)CC1 (centres unmarked) [Example 102]', 'Ki', 5.1),
  ('CN(Cc1ccc(Cl)cc1)C(=O)C(C)(CCN1CCC(N2CCCC2=O)CC1)c1ccc(Cl)c(Cl)c1 (centres unmarked) [Example 84]', 'Ki', 2.1),
  ('CC[C@H](NC(=O)C(C)(CCN1CCC(N(CCOC)C(C)=O)CC1)c1ccc(Cl)c(Cl)c1)c1ccccc1 (some centres unmarked) [Example 152]', 'Ki', 1.1),
  ('C[C@](CCN1CCC(N2CCCC2=O)CC1)(C(=O)N[C@H](CO)c1ccc(Cl)c(Cl)c1)c1ccc(Cl)c(Cl)c1 (single isomer, unassigned) [Example 120]', 'Ki', 2),
  ('CN(Cc1ccc(Cl)cc1)C(=O)C(CCN1CCC(N2CCCC2=O)CC1)c1ccc(Cl)c(Cl)c1 (centres unmarked) [Example 115]', 'Ki', 8.1),
  ('CC(=O)N(C)C1CCN(CCC(C)(C(=O)N(C)Cc2ccc(C(F)(F)F)cc2)c2ccc(Cl)c(Cl)c2)CC1 (centres unmarked) [Example 106]', 'Ki', 5.1),
  ('CN(Cc1ccc(F)c(C(F)(F)F)c1)C(=O)C(C)(CCN1CCC(N2CCCC2=O)CC1)c1ccc(Cl)c(Cl)c1 (centres unmarked) [Example 86]', 'Ki', 1.4),
  ('CCN(C1CCN(CCC(C)(C(=O)N(C)Cc2ccc(Cl)c(C(F)(F)F)c2)c2ccc(Cl)c(Cl)c2)CC1)S(C)(=O)=O (centres unmarked) [Example 73]', 'Ki', 1.5),
  ('Cc1ccc(CN(C)C(=O)C(C)(CCN2CCC(N3CCCC3=O)CC2)c2ccc(Cl)c(Cl)c2)cc1 (centres unmarked) [Example 89]', 'Ki', 5.3),
  ('CC(CCN1CCC(N2CCCC2=O)CC1)(C(=O)NC(c1ccccc1)C(F)(F)F)c1ccc(Cl)c(Cl)c1 (centres unmarked) [Example 95]', 'Ki', 4.7),
  ('CC[C@H](NC(=O)C(C)(CCN1CCC(N2CCCC2=O)CC1)c1ccc(Cl)c(Cl)c1)c1ccccc1 (some centres unmarked) [Example 127]', 'Ki', 5.2),
  ('CN(C1CCN(CCC(C)(C(=O)N[C@@H](CO)c2ccc(Cl)c(Cl)c2)c2ccc(Cl)c(Cl)c2)CC1)S(C)(=O)=O (single isomer, unassigned; diastereoisomer 1) [Example 49]', 'Ki', 5.5),
  ('CCN(C1CCN(CCC(C)(C(=O)N(C)Cc2ccc(Cl)cc2)c2ccc(Cl)c(Cl)c2)CC1)S(C)(=O)=O (centres unmarked) [Example 72]', 'Ki', 2.2),
  ('CC(=O)N(C)C1CCN(CCC(C)(C(=O)N(C)Cc2cccc(Cl)c2)c2ccc(Cl)c(Cl)c2)CC1 (centres unmarked) [Example 105]', 'Ki', 8.7),
  ('CC(CCN1CCC(N2CCCC2=O)CC1)(C(=O)N[C@@H](CO)c1ccc(Cl)c(Cl)c1)c1ccc(Cl)c(Cl)c1 (single isomer, unassigned; diastereoisomer 1) [Example 94]', 'Ki', 3),
  ('CCN(C1CCN(CCC(C)(C(=O)N[C@@H](CO)c2ccc(Cl)c(Cl)c2)c2ccc(Cl)c(Cl)c2)CC1)S(C)(=O)=O (single isomer, unassigned; diastereoisomer 1) [Example 79]', 'Ki', 1.5);

Origin of values: patent US20110021565A1
